Test system: DU-145
experimental.protocol: NCI tumour cell line growth inhibition, 48 h
Activity calls are given as the source filed them. Cut-off read from the data, not from the text of the source: active = GI50 up to about 1.1 µM and inactive = higher.
Write down one outcome, taken from yes = active, no = inactive

See these solved cases before continuing.
{"compound": "Cc1ccc(C)n2c1nc1ccccc12", "assigned.class": "no"}
{"compound": "CCOC(=O)C(=NN(C)c1ncccc1N)C(=O)OCC", "assigned.class": "no"}
{"compound": "COc1cc(C2c3cc4c(cc3OC(N3CCOCC3)C2C)OCO4)cc(OC)c1O (centres undefined)", "assigned.class": "no"}
{"compound": "OCCCSc1ccccc1SCCCO", "assigned.class": "no"}

Could you kindly confirm the outcome this assay logged for O=[N+]([O-])c1cccc2nc3ccccc3c(NCCc3cccc[n+]3[O-])c12 ? yes

====

# reported GI50; entries follow
System: NCI-H23
experimental.protocol: NCI tumour cell line growth inhibition, 48 h
Activity calls are given as the source filed them. Rule as the data show it: active = GI50 up to about 1.1 µM and inactive = higher.

The following compounds have reported results that may help.
{"compound": "O=C1/C(=C2/C(=O)N(c3ccccc3)c3ccccc32)Nc2ccccc21", "GI50": "63.5 µM (inactive)"}
{"compound": "CC(=O)NNc1nc(C)c(C(/C=C/c2cccc([N+](=O)[O-])c2)=N/NC(=S)NN)s1", "GI50": "> 100 µM (inactive)"}
{"compound": "CCOC(=O)NC(=O)c1cn(CCN2CCNCC2)c(=O)[nH]c1=O", "GI50": "> 100 µM (inactive)"}
{"compound": "O=C(SC1=NCCN1)c1cccc2ccccc12", "GI50": "63.5 µM (inactive)"}
{"compound": "O=C(/C=C/c1ccc(O)c(-c2cc(C(=O)/C=C/c3ccc(O)cc3)c(O)cc2O)c1)c1ccc(O)cc1O", "GI50": "23.9 µM (inactive)"}

# lookup: GI50 of O=C(CCc1ccc(O)c(O)c1)c1ccc(O)c(O)c1O 21.4 µM (inactive)

====

Tested on: SN12C
experimental.protocol: NCI tumour cell line growth inhibition, 48 h
Activity calls are given as the source filed them. Rule as the data show it: active = GI50 up to about 1.1 µM and inactive = higher.
# reported GI50; entries follow

{"compound": "O=c1ncc(F)cn1C1OC(CO)C(O)C1O (stereo unspecified)", "measured.value": "> 17.4 µM (inactive)"}

# lookup: GI50 of CCOc1ccc(/C=C/C(=O)c2sc(NNC(C)=O)nc2C)cc1 > 100 µM (inactive)

# lookup: GI50 of COc1ccc(NCc2cccc3c(=O)c4ccc(Cl)cc4oc23)cc1 > 100 µM (inactive)

# lookup: GI50 of CCN(CC)CCNc1nc(N)c(C#N)c(C#N)c1C#N > 10 µM (inactive)

# lookup: GI50 of O=C(O)CCSC(=O)Nc1ccc(/N=N/c2ccccc2)cc1 > 100 µM (inactive)

# lookup: GI50 of CCOc1ccc(O)cc1[P+](c1ccccc1)(c1ccccc1)c1ccccc1 3.13 µM (inactive)

====

# reported GI50; entries follow
System: NCI-H522
experimental.protocol: NCI tumour cell line growth inhibition, 48 h
Activity calls are given as the source filed them. Rule as the data show it: active = GI50 up to about 1.1 µM and inactive = higher. Non-standard residues stand in square brackets, D forms with d. Residues, ends and D or L forms follow the SMILES beside them. *: point of attachment. Ac5c = NC1(C(=O)O)CCCC1; Boc = CC(C)(C)OC(=O)*; tBu = CC(C)(C)*

The following molecules have reported results that may help.
{"molecule": "Cc1cn([C@@H]2C[C@@H]2CO)c(=O)[nH]c1=O", "study.system": "NCI-H522", "GI50": "> 100 µM (inactive)"}
{"molecule": "Cc1cn(C2CC(CCCO)C(CO)O2)c(=O)[nH]c1=O (stereo not drawn)", "study.system": "NCI-H522", "GI50": "> 100 µM (inactive)"}
{"molecule": "CCOC(=O)C(CO)c1nc2c([nH]c1=O)c(=O)n(C)c(=O)n2C (stereo not drawn)", "study.system": "NCI-H522", "GI50": "> 100 µM (inactive)"}
{"molecule": "Cc1nn(-c2ccccn2)c2c1C(SC#N)=C(C=O)CC2", "study.system": "NCI-H522", "GI50": "19.5 µM (inactive)"}
{"molecule": "C=CC(C)(C)n1cc(C2=C(O)C(=O)C(c3cn(C(C)(C)C=C)c4ccccc34)=C(O)C2=O)c2ccccc21", "study.system": "NCI-H522", "GI50": "2.53 µM (inactive)"}
{"molecule": "O=C1/C(=C/c2ccc3c(c2)OCO3)CCC1CN1CCOCC1 (stereo not drawn)", "study.system": "NCI-H522", "GI50": "1.04 µM (active)"}
{"molecule": "O=C(Nc1ccc(Cl)cc1)[C-](C(=O)c1ccc(Br)cc1)[n+]1cccc(-c2ccc(Cl)cc2)n1", "study.system": "NCI-H522", "GI50": "2.26 µM (inactive)"}
{"molecule": "CN(C)CC/C(=N\\Nc1c(F)c(F)c(F)c(F)c1F)c1ccccc1", "study.system": "NCI-H522", "GI50": "14.3 µM (inactive)"}
{"molecule": "O=C(SC1=NCCN1)c1cccc2ccccc12", "study.system": "NCI-H522", "GI50": "19.5 µM (inactive)"}
{"molecule": "O=C1CN2C(Cl)(Cl)C2(c2ccccc2)c2cc(Cl)ccc2N1CC(F)(F)F (stereo not drawn)", "study.system": "NCI-H522", "GI50": "17.4 µM (inactive)"}

Enter reported GI50 observed with NCI-H522 for COc1ccc(/N=N/C(=N\c2ccc(Cl)cc2)c2ccc(N(CCC#N)CCC#N)cc2)cc1 17.4 µM (inactive)

Enter reported GI50 observed with NCI-H522 for N=c1oc2c(O)c(O)ccc2cc1C(N)=O 58.6 µM (inactive)

Enter reported GI50 observed with NCI-H522 for Cc1ccc(O)c(/N=N/c2ccc(S(=O)(=O)O)cc2)n1 > 100 µM (inactive)

Enter reported GI50 observed with NCI-H522 for CC(OC(C)(C)C)C(NC(=O)C(CCCCNC(=O)OC(C)(C)C)NC(=O)C(Cc1c[nH]c2ccccc12)NC(=O)C(N)Cc1ccccc1)C(=O)NC(Cc1ccccc1)C(=O)NC1(C(=O)O)CCCC1 (stereo not drawn) (H-FWK(Boc)T(tBu)F[Ac5c]-OH; configuration not given here) > 100 µM (inactive)

Enter reported GI50 observed with NCI-H522 for CC[C@@]1(O)C(=O)OCc2c1cc1n(c2=O)Cc2c-1nc1ccccc1c2/C=N\NC(=O)CN 1.02 µM (active)

Enter reported GI50 observed with NCI-H522 for NC(CCC(=O)NC(CSC(=O)N(O)c1ccccc1)C(=O)NCC(=O)O)C(=O)O (stereo not drawn) > 1000 µM (inactive)

Enter reported GI50 observed with NCI-H522 for CCOC(=O)c1c2c(n(-c3ccc(OC)cc3)c1C)C(=O)C(=O)c1ccccc1-2 2.71 µM (inactive)

Enter reported GI50 observed with NCI-H522 for COc1ccc2c3c1O[C@H]1C[C@@H](O)C=C[C@@]31CCN(C)C2 > 150 µM (inactive)

Enter reported GI50 observed with NCI-H522 for CN1CCN(C)C12C=CC=CC21CC1 > 100 µM (inactive)

Enter reported GI50 observed with NCI-H522 for CC(O)C1(CNc2cc(Cl)nc(N)n2)CCC1 (stereo not drawn) > 100 µM (inactive)

Enter reported GI50 observed with NCI-H522 for COc1c(CC=C(C)C)c(O)c(C(CC(C)C)c2c(O)c3c(c(C(C)=O)c2O)OC(C(C)(C)O)C3)c(O)c1C(C)=O (stereo not drawn) 3.42 µM (inactive)

Enter reported GI50 observed with NCI-H522 for COc1cc2c3c(c1OC)C(=O)C=C3N(S(=O)(=O)c1ccc(C)cc1)CC2 10.4 µM (inactive)

Enter reported GI50 observed with NCI-H522 for O=C(O)/C=C/n1c2ccccc2c(=O)c2ccccc21 > 100 µM (inactive)
